Test: PubChem AID 1554
Settings: BJeLR (HRASV12) viability, CellTiter-Glo ATP luminescence, 48 h; stronger effect = higher value; concentration not given here
About 520 (0.17%) of roughly 300,000 compounds were called active. The sample holds actives, similar compounds and a random draw of the others, so the mix is not that of the screen.

- smiles_representation: "CCOC(=O)c1c(C)[nH]c(C)c1S(=O)(=O)N(C)CC(=O)Nc1ccccc1C"
  inhibition (%): 1.31
- smiles_representation: "COc1ccccc1CCC(=O)OCC(=O)N1CCN(S(=O)(=O)c2ccc(C)cc2C)CC1"
  inhibition (%): -5.89
- smiles_representation: "CCOC(=O)c1c(N)sc2c1CCCC2=O"
  inhibition (%): 7.59
- smiles_representation: "CCOC(=O)c1c(C)[nH]c2c1-c1ccccc1C(=O)C2=O"
  inhibition (%): 74.1
- smiles_representation: "COc1cc(CN2CCN(Cc3ccc(C)cc3)CC2)c([N+](=O)[O-])cc1OC"
  inhibition (%): 1.71

---

Test: PubChem AID 1554
Settings: BJeLR (HRASV12) viability, CellTiter-Glo ATP luminescence, 48 h; stronger effect = higher value; concentration not given here
The whole screen tested about 300,000 compounds, of which about 520 (0.17%) were called active. Many of the other results were omitted from the sample, so actives are more common in it than they were.
Catalogue of inhibition readings, one per entry.
readout_name: inhibition (%)

- molecule: "CC[C@H]1CN2CCc3cc(OC)c(OC)cc3[C@@H]2C[C@@H]1C[C@H]1NCCc2cc(OC)c(OC)cc21"
  reported_result: 71.3
- molecule: "CC(=O)NCCc1ccc(S(=O)(=O)N(C)C2CCS(=O)(=O)C2)cc1 (stereo unspecified)"
  reported_result: 7.45
- molecule: "CSc1nc(C)nc(C2CC2)c1C#N"
  reported_result: -2.16
- molecule: "Cc1cc(=O)[nH]c(SCc2ccc(Cl)cc2)n1"
  reported_result: 0.607
- molecule: "COc1ccc2c(c1)CCNC2Cc1ccc(OC)c(O)c1 (stereo unspecified)"
  reported_result: -7.5
- molecule: "CCC(=C/c1sc2ccc3ccccc3c2[n+]1C)/C=C1\\Sc2ccc3ccccc3c2N1C"
  reported_result: 60.9
- molecule: "CCc1ccc(OCC2c3cc(OC)c(OC)cc3CCN2C(C)=O)cc1 (stereo unspecified)"
  reported_result: -19.6
- molecule: "O=C1C2CCCN2C(=O)N1CCCCN1CCN(c2cccc(C(F)(F)F)c2)CC1 (stereo unspecified)"
  reported_result: -4.72
- molecule: "CCOc1c(N2CCCCC2)c(=O)c1=O"
  reported_result: 5.32
- molecule: "CSCCC(NC(=O)COc1ccccc1)C(=O)OCCOc1ccc(F)cc1 (stereo unspecified)"
  reported_result: -6.51
- molecule: "COc1ccc(CCNC(=O)COC(=O)Cc2cc(OC)c(OC)c(OC)c2)cc1"
  reported_result: 0.941

---

Assay: PubChem AID 1554
Conditions: BJeLR (HRASV12) viability, CellTiter-Glo ATP luminescence, 48 h; stronger effect = higher value; concentration not given here
Among all 300,000 compounds or so, about 520 (0.17%) were called active. Only a selection was taken, and actives are over-represented in it overall.

- compound: "Cc1ccc(/C=C/C(=O)Nc2ccc([N+](=O)[O-])c(NC(=O)/C=C/c3ccc(C)o3)c2)o1"
  inhibition, %: -29.1
- compound: "CC(=O)c1ccc(Oc2cc(C)nc(-n3nc(C)cc3C)n2)cc1"
  inhibition, %: 50.8
- compound: "COc1ccccc1N1CCN(C(=O)c2cc(=O)c3cc(C)cc(C)c3o2)CC1"
  inhibition, %: 58.9
- compound: "COc1ccccc1C(=O)NCCn1cc(SCC(=O)NCc2ccco2)c2ccccc21"
  inhibition, %: -1.46
- compound: "COC(=O)c1ccc(OCC(O)CN(CCO)CC(O)Cn2ccc3ccccc32)cc1 (configuration not stated)"
  inhibition, %: 1.45
- compound: "O=C(NC(Nc1nc2ccc([N+](=O)[O-])cc2s1)(C(F)(F)F)C(F)(F)F)c1ccccc1"
  inhibition, %: 77.1
- compound: "COc1ccc(C2=NS(=O)(=O)N(C)C(C(=O)N3CCCCC3)=C2)cc1"
  inhibition, %: -1.58
- compound: "O=[N+]([O-])c1cc(Br)c(O)c(/C=N/Nc2nc3ccccc3s2)c1"
  inhibition, %: 7.46
- compound: "CCOC(=O)/C(=C\\c1ccc([N+](=O)[O-])cc1)C(=O)c1cc(C(C)=O)c(Nc2ccccc2)s1"
  inhibition, %: 58.8
- compound: "Cc1ccc(S(=O)(=O)n2cccc2CO)cc1"
  inhibition, %: -3.34
- compound: "Cc1ccc(O)c(/C=N/NC(=O)COc2ccc3c(C)cc(=O)oc3c2)c1"
  inhibition, %: -1.41
- compound: "CN(C)/C=C(\\C#N)C(=O)c1cccnc1Oc1ccc(F)cc1F"
  inhibition, %: -6.11
- compound: "COc1ccc(C(C(O)C(=O)c2c[nH]c3ccccc23)N2CCN(c3ccccc3)CC2)cc1 (configuration not stated)"
  inhibition, %: 0.745
- compound: "Cc1cc(Oc2ccc(Cl)cc2)nc(SCC(=O)c2ccccc2)n1"
  inhibition, %: -7.21
- compound: "COc1ccccc1NC(=O)c1cc(N2C(=O)C3C4CCC(C4)C3C2=O)ccc1Cl (configuration not stated)"
  inhibition, %: -10.4
- compound: "Cc1ccc(-c2nn(-c3ccccc3)cc2CN(Cc2ccccc2)C(=O)CCC(=O)O)o1"
  inhibition, %: -0.0578
- compound: "CC(C)Cn1c(=O)c2ccccc2n2c(CCC(=O)NCc3ccccn3)nnc12"
  inhibition, %: -6.38
- compound: "O=C(c1cccc(F)c1)N1CCC(O)(c2cccnc2)CC1"
  inhibition, %: 1.27
- compound: "COc1ccccc1N1CCN(C(=O)c2cc(=O)c3cc(C)ccc3o2)CC1"
  inhibition, %: 8.05
- compound: "O=C(/C=C/c1ccc([N+](=O)[O-])o1)NNC(=O)c1ccc(F)cc1"
  inhibition, %: 60.3
- compound: "CCOC(=O)C1=C(CSc2nnnn2C)N(C)C(=O)NC1c1ccccc1 (configuration not stated)"
  inhibition, %: 0.916
- compound: "O=C(N/N=C/c1ccc([N+](=O)[O-])o1)c1cn(-c2ccccc2)nc1-c1ccc(F)cc1"
  inhibition, %: -4.37
- compound: "O=c1[nH]snc1-c1c(Cl)cccc1Cl"
  inhibition, %: 1.3
- compound: "O=C(NCc1ccco1)c1ccc(NS(=O)(=O)c2cccc([N+](=O)[O-])c2)cc1"
  inhibition, %: 5.53
- compound: "CN(C)CCN(Cc1ccccc1)S(=O)(=O)c1csc(C(N)=O)c1"
  inhibition, %: 7.25
- compound: "COc1ccc2c(c1)N(C)/C(=C1/SC(=S)N(NC(C)=O)C1=O)S2"
  inhibition, %: 1.69
- compound: "CC1(C)O[C@H]2CC(=O)OCC23[C@H]2CC[C@@]4(C)[C@H](c5ccoc5)OC(=O)[C@H]5O[C@]54[C@]2(C)C(=O)C[C@@H]13 (some centres not stated)"
  inhibition, %: 4.22
- compound: "Cc1ccc(NC(=O)c2cnc(SCC(=O)NCC3CCCO3)n(C)c2=O)cc1 (configuration not stated)"
  inhibition, %: 1.95
- compound: "Cc1ccc2cc(C#N)c(NCCNC(=S)NCCCN3CCOCC3)nc2c1"
  inhibition, %: 4.4
- compound: "Cc1cc([N+](=O)[O-])nn1Cc1ccc(F)cc1"
  inhibition, %: 7.4
- compound: "COc1cc(/C=C(\\C#N)c2nc3ccccc3[nH]2)ccc1O"
  inhibition, %: -5.76
- compound: "CC12CCC(C(=O)N(CCC#N)CCC#N)(CC1=O)C2(C)C (configuration not stated)"
  inhibition, %: -15.4
- compound: "CSCCC(NC(=O)COc1ccccc1)C(=O)OCCOc1ccc(Br)cc1 (configuration not stated)"
  inhibition, %: 5.25
- compound: "CC(C)(C)SCCSC1=CC(=O)CC(c2ccccc2)C1 (configuration not stated)"
  inhibition, %: 7.66
- compound: "CC(C)(C)c1cc(NC(=O)NN2CCOCC2)nn1-c1c(Cl)cc(Cl)cc1Cl"
  inhibition, %: -1.25
- compound: "N#Cc1c(-c2cccs2)nc(SCC(=O)c2ccc(Br)cc2)[nH]c1=O"
  inhibition, %: -2.63
- compound: "CCOc1ccc2[nH]c3nc(SCC(=O)NC4CCCC4)nnc3c2c1"
  inhibition, %: 19.9
- compound: "COc1ccc(/C=C(\\C#N)c2c[nH]c3ccccc23)cc1"
  inhibition, %: 52.5
- compound: "COc1cccc(-c2cc(C(=O)N3CCN(c4ccccc4OC)CC3)no2)c1"
  inhibition, %: -5.2
- compound: "COc1ccc(S(=O)(=O)N2CCOCC2)cc1NC(=O)COc1ccccc1"
  inhibition, %: -1.51
- compound: "CCOC(=O)C1CCCN(S(=O)(=O)c2ccc3c(c2)C(C)(C)C(=O)N3C)C1 (configuration not stated)"
  inhibition, %: -8.48
- compound: "Cc1ccc(OC(=O)c2cncc(Br)c2)c(C)c1"
  inhibition, %: -5.3

Where these numbers come from: PubChem BioAssay AID1554
